System: K562
ASSAY METRIC: GI50 (nM)

Field: example entries. Status: answers known.
# COMPOUND SMILES, GI50 / nM
rows = [
    ("CCNC(=O)c1ccc(Nc2ncc3c(n2)N(C2CCCC2)[C@H](CC)C(=O)N3C)c(OCCO)c1", 98.9),
    ("CC[C@@H]1C(=O)N(C)c2cnc(Nc3ccc(C(=O)NC4CCCC4)cc3OCc3ccccc3)nc2N1C1CCCC1", 958),
    ("CC[C@@H]1C(=O)N(C)c2cnc(Nc3cc(F)c(C(=O)NC4CCOCC4)cc3OCCO)nc2N1C(C)C", 915),
]

[A] CC[C@@H]1C(=O)N(C)c2cnc(Nc3ccc(C(=O)NC4CCOCC4)cc3OCCO)nc2N1C(C)C
[B] CC[C@@H]1C(=O)N(C)c2cnc(Nc3ccc(C(=O)NC4CCN(C)CC4)cc3OCCO)nc2N1C1CCCC1
[C] CC[C@@H]1C(=O)N(C)c2cnc(Nc3ccc(C(=O)NC4CCCC4)cc3OCCOC)nc2N1C1CCCC1
Ask: List the 3 entries from lowest GI50 to highest GI50 value. I would appreciate it if you listed the labels in the requested order.
Result: B, A, C

* * *

Tested on: A549
ASSAY METRIC: GI50 (nM)

Look over these answered cases.
# COMPOUND, GI50 [nM]
data = [
    ("CCCCNC(=O)c1ccc(Nc2ncc3c(n2)N(C2CCCC2)[C@H](CC)C(=O)N3C)c(OCCO)c1", 240),
    ("CCC1C(=O)N(C)c2cnc(Nc3cc(F)c(C(=O)NC4CCCC4)cc3OCCO)nc2N1C1CCCC1 (stereo not drawn)", 352),
    ("CC[C@@H]1C(=O)N(C)c2cnc(Nc3cc(F)c(C(=O)NCCN4CCN(C)CC4)cc3OCCO)nc2N1C1CCCC1", 1190),
]

[1] CC[C@@H]1C(=O)N(C)c2cnc(Nc3cc(F)c(C(=O)NC4CCN(C)CC4)cc3OCCO)nc2N1C1CCCC1
[2] CC[C@@H]1C(=O)Nc2cnc(Nc3ccc(C(=O)NC4CCCC4)cc3OC)nc2N1C1CCCC1
[3] CC[C@@H]1C(=O)N(C)c2cnc(Nc3ccc(C(=O)NC4CC4)cc3OCCO)nc2N1C1CCCC1
[4] CC[C@@H]1C(=O)N(C)c2cnc(Nc3ccc(C(=O)NC4CCCC4)cc3O)nc2N1C1CCCC1
[5] CC[C@@H]1C(=O)N(COC)c2cnc(Nc3ccc(C(=O)NC4CCCC4)cc3OC)nc2N1C1CCCC1
Ask: Order the records, beginning with the lowest GI50 and ending with the highest. Reply format: the labels, ordered as requested.
Result: 4, 1, 3, 2, 5

* * *

Quick record of GI50 values for HeLa.
ASSAY METRIC: GI50 (nM)

# MOLECULE, ASSAY METRIC, ASSAY RESULT
measured = [
    ("CC[C@@H]1C(=O)N(C)c2cnc(Nc3ccc(C(=O)NC(C)C)cc3OCCO)nc2N1C1CCCC1", "GI50", 24.7),
]

[I] CC[C@@H]1C(=O)N(C)c2cnc(Nc3ccc(C(=O)NCCN4CCN(C)CC4)cc3OCCO)nc2N1C1CCCC1
[II] CC[C@@H]1C(=O)N(C)c2cnc(Nc3ccc(C(=O)NCCN4CCOCC4)cc3OCCO)nc2N1C1CCCC1
[III] CC[C@@H]1C(=O)N(C)c2cnc(Nc3ccc(C(=O)NC4CCN(C)CC4)cc3OC)nc2N1C1CCCC1 [BI-2536]
Ask: # sort list by recorded GI50, greatest to least Please list the labels according to the requested order.
Result: I, II, III
(I: 892 nM, II: 187 nM, III: 34 nM)

The reported measurements were obtained from ChEMBL document CHEMBL4406868.
